Record form. Attribute: composite z-score. Fill in for each entry.
target: Left-right determination factor 2 (Homo sapiens); assay: small molecules binding LEFTY2 protein – biochemical, small-molecule microarray, 635 nm fluorescence scan, primary screen (AID 1110); conditions: higher = more signal

Example molecules with recorded composite z-score:
COC(=O)[C@@]1(Cc2ccccc2N=[N+]=[N-])N=C(c2ccc(OCCCO)cc2)O[C@H]1c1ccccc1    -0.319
CC(C)C[C@@H]1NC(=O)[C@@H]2C[C@H](C(=O)NCCCC[N+](C)(C)C)[C@H](c3cccc(OCCO)c3)N2C1=O    1.01

// for each molecule below, give its composite z-score
1. O=C1N(CCS(=O)(=O)c2ccccc2)c2ccccc2[C@H]2OC(c3ccc(OCCCO)cc3)=N[C@@]12CCS(=O)(=O)c1ccccc1
2. C=C(C(=O)CC[C@H](OC(=O)c1cccnc1)c1ccc(OCCO)cc1)C(C)C

Reply |
[0.98, 0.242]

* * *

target: Torsin-1A-interacting protein 1 (Homo sapiens); assay: compound microarray binding of lysate hLAP1 – cell lysate, small-molecule microarray, COS7 lysate, 635/667 nm fluorescence, primary screen (AID 1116); conditions: 635 nm fluorescence, higher = more signal
quantityName: composite z-score
One number for each entry.

COc1ccc([Si](C)(C)[C@@H]2[C@@H](CC(=O)N(CCO)Cc3ccccc3)O[C@]3(C(=O)N(Cc4ccc(N5CCOC5=O)cc4)c4ccccc43)[C@H]2C)cc1    1.02

I need composite z-score for every entry listed below, if you could help.
1. COc1ccc(C(=O)Nc2ccc3c(c2)[C@]2(O[C@@H](CCO)[C@H]([Si](C)(C)c4ccc(OC)cc4)[C@H]2C)C(=O)N3Cc2ccccc2)cc1
2. CC(C)N1CC=CC23O[C@@H]4C=CCOC(=O)[C@@H]4[C@H]2C(=O)N(CCCCCCO)[C@@H]3C1=O (stereo not given in full)
3. C=CCC(OC(C)=O)[C@@H]1[C@@H](N(Cc2ccc(-c3ccccc3)cc2)C(=O)Cc2ccc(OC)cc2)c2cc(OCCCO)ccc2N1C(=O)c1ccc(-c2ccccc2)cc1 (stereo not given in full)
4. CC(C)NC(=O)[C@@]1(Cc2ccccc2I)c2ccccc2C(=O)N(Cc2ccccc2C(F)(F)F)[C@H]1c1ccc(CO)cc1

Reply |
0.422
2.03
0.609
0.506

For every listed record, write down its composite z-score.
1. [N-]=[N+]=Nc1ccccc1[C@@H]1OC(c2ccc(OCCCO)cc2)=N[C@]1(CCS(=O)(=O)c1ccccc1)C(=O)NCc1ccccc1
2. O=C1C2C=CC(C(O)c3ccc(Br)cc3)N(Nc3ccccc3)C2C(=O)N1c1ccccc1 (stereo not given)
3. CC[C@@H]1[C@@H]2C3C(=O)N(CC)C(=O)C3CC(=O)[C@@H]2[C@H](c2ccc(C)cc2)N1S(=O)(=O)c1ccc(C)cc1 (stereo not given in full)
4. O=C1NC(=O)C2C1C=CC(C(O)c1ccc(-c3ccccc3)s1)N2Nc1ccccn1 (stereo not given)

Reply |
1: 2.15; 2: 0.661; 3: 1.22; 4: 2.8

// for each compound in input: emit composite z-score
1. COCC(=C=CC[C@@H](O)c1ccccc1OCCO)C[C@@H](O)COCc1ccccc1
2. C=CC[C@@]1(C(=O)NCC(O)CO)N=C(c2ccc(OCCCO)cc2)O[C@@H]1c1ccccc1 (stereo not given in full)
3. C=C(COC)/C(=C/C[C@@H](OC(=O)c1ccncc1)c1cccc(OCCO)c1)c1cc(C(=O)OC)ccc1OC
4. C=C(C)[C@@H]1CC=C(C(O)C2C=CC3C(=O)N(C4CCCCC4)C(=O)C3N2Nc2ccc(OC)cc2)CC1 (stereo not given in full)
5. Cc1ccccc1C(O)C1C=CC2C(=O)N(Cc3ccccc3)C(=O)C2N1n1cnnc1 (stereo not given)
6. C=C(COC)C(=O)CC[C@H](OC(=O)c1ccccc1-c1ccccc1C(=O)O)c1ccc(CO)o1

Reply |
2.56
3.73
0.567
0.477
0.542
0.77

* * *

experiment: growth modulation of vineyard yeast isolate – strain RM11-1a, OD600, basal, 24 h, primary screen (AID 1177);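 also: cultures grown under basal conditions with no added stressor; test concentration not given here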; conditions: S. cerevisiae RM11-1a growth, OD600, 24 h; higher = more signal, called active from +8 up or from −8 down
# binarize z-score: threshold 0.9 inclusive, high side t, low side f

Consider the following illustrative entries.
C[C@H]1ON(c2ccccc2)[C@@H](c2ccccc2)[C@@H]1C(=O)N1C(=O)OC[C@@H]1c1ccccc1    t
C=CCNC(=O)[C@@H]1[C@H]2C(=O)O[C@H](c3ccccc3)[C@H](c3ccccc3)N2[C@H](c2ccc(O)cc2)[C@@]12C(=O)Nc1ccc(C#CCCO)cc12    f

Ask | Assess whether reported z-score for "C=CCN1C(=O)[C@@]2(O[C@@H](CCn3cc([C@H](O)c4ccccc4)nn3)[C@H]([Si](C)(C)c3ccc(OC)cc3)[C@H]2C)c2cc(NC(=O)c3ccc(OC)cc3)ccc21" sits at 0.9 or higher.
Reply | t

Ask | Hi, just wondering whether "CC(C)(C)OC(=O)CC[C@]1(C(=O)N2CCCCC2)N=C(c2ccc(OCCCO)cc2)O[C@H]1c1ccccc1CN=[N+]=[N-]" shows z-score of 0.9 or higher.
Reply | f

Ask | Determine whether measured z-score meets or exceeds 0.9 for "C=CCNC(=O)[C@H]1[C@@H]2C(=O)O[C@@H](c3ccccc3)[C@@H](c3ccccc3)N2[C@@H](c2ccc(OCCO)cc2)[C@]12C(=O)N(C(=O)OCCOC)c1ccc(C#CC3=CCCCC3)cc12"
Reply | t

* * *

assay: optical density change of DRC41 E. coli – strain DRC41, OD650, 24 h, E. coli filamentation project, primary screen (AID 1093);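 also: MC1000 strain lacking acrAB efflux and sulA so SOS filamentation is blocked; test concentration not given here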; settings: E. coli DRC41 growth, higher = more signal, called active from +8 up or from −8 down
Kindly supply the reported z-score values for the records listed here.
Answers are plain numbers.

Worked cases, z-score given:
CCOC(=O)C[C@H]1[C@H](OC(=O)c2ccccc2-c2ccccc2)[C@@H](NC(=O)c2ccccc2)c2cc(OCCCO)ccc2N1C(=O)Cc1ccc(OC)cc1    -0.922
C[C@H]1ON(c2ccccc2)[C@@H](c2ccccc2)[C@@H]1C(=O)N1C(=O)OC[C@@H]1c1ccccc1    -0.0337
CC(C)N1C(=O)c2ccccc2[C@](C)(C(=O)O)[C@@H]1c1ccc(CO)cc1    -0.156
C#CCNS(=O)(=O)N(C)C    0.663
O=C1NC(=O)C2C1C=CC(C(O)c1ccc(-c3ccccc3)s1)N2Nc1ccccn1 (stereo not drawn)    0.0076

For every item below, please supply its z-score.
1. CN(C)CCCCNC(=O)[C@H]1C[C@H]2C(=O)N[C@@H](CCCC[N+](C)(C)C)C(=O)N2[C@H]1c1cccc(OCCO)c1
2. O=C1C[C@@](C(=O)O)(c2ccc([N+](=O)[O-])cc2)[C@@H](c2ccc(CO)cc2)N1CC12CC3CC(CC(C3)C1)C2
3. CC(C)c1ccc(NN2C(C(O)c3cccs3)C=CC3C(=O)N(c4ccccc4)C(=O)C32)cc1 (stereo not drawn)

Reply |
[0.305, 0.91, -1.14]

* * *

assay: binders of probe aHhip on microarray, primary screen, stem cell growth factor project, biochemical, small-molecule microarray, fluorescence 635/667 (AID 1087); settings: higher = more signal;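 also: score merges spot fluorescence at 667nm with spot signal to noise ratio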
quantityName: composite z-score
Numbers only.

// solved cases for composite z-score follow
CC(C)NC(=O)[C@@]1(Cc2ccccc2I)c2ccccc2C(=O)N(Cc2ccccc2C(F)(F)F)[C@H]1c1ccc(CO)cc1    0.533
COC(=O)C(CC#Cc1ccc2c(c1)[C@]1(C(=O)N2)[C@H](c2ccccc2OCCO)N2[C@H](c3ccccc3)[C@H](c3ccccc3)OC(=O)[C@H]2[C@@H]1C(=O)Nc1nc2ccccc2s1)C(=O)OC    0.0329
O=C(O)[C@@]1(Cc2ccccc2)COC(c2ccc(OCCCO)cc2)=N1    -0.0994

Ask | Output measured composite z-score for this item: CC(C)c1ccc(NN2C(C(O)c3cccs3)C=CC3C(=O)N(c4ccccc4)C(=O)C32)cc1 (centres undefined)
Reply | 0.122

* * *

test: small molecules captured by biotinylated probe aFGF10 – biochemical, small-molecule microarray, fluorescence 635/667, stem cell growth factor project, primary screen (AID 1071); conditions: higher = more signal;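 also: score merges 667 nm spot intensity and signal to noise from triplicate slides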
Outcome: y for composite z-score of at least 0.5; n for anything lower.

COCCOC(=O)N1C(=O)[C@@]2(c3cc(C#Cc4ccc(OC)cc4)ccc31)[C@H](c1ccc(OCCO)cc1)N1[C@H](c3ccccc3)[C@H](c3ccccc3)OC(=O)[C@H]1[C@@H]2C(N)=O    y

Ask | Is it the case that "[N-]=[N+]=NCc1ccccc1C[C@@]1(C(=O)NCCN2CCOCC2)N=C(c2ccc(OCCCO)cc2)O[C@@H]1c1ccccc1CN=[N+]=[N-]" has composite z-score reaching or exceeding 0.5?
Reply | y

Ask | For this compound, is measured composite z-score 0.5 or higher? "COc1ccc([Si](C)(C)[C@@H]2[C@@H](CCO)O[C@]3(C(=O)N(Cc4ccccc4)c4ccc(N5CCCCC5=O)cc43)[C@H]2C)cc1"
Reply | y

Ask | Quick check: does O=C1C2C=CC(C(O)c3ccc(Br)cc3)N(Nc3ccccc3)C2C(=O)N1c1ccccc1 (centres undefined) have composite z-score greater than or equal to 0.5?
Reply | y

Ask | Has "COC(=O)C(CC#Cc1ccc2c(c1)[C@]1(C(=O)N2)[C@H](c2ccc(O)cc2)N2[C@H](c3ccccc3)[C@H](c3ccccc3)OC(=O)[C@H]2[C@@H]1C(=O)O)C(=O)OC" a recorded composite z-score greater than or equal to 0.5?
Reply | n

Ask | Decide: is the reported value of composite z-score for "O=C1N(CCS(=O)(=O)c2ccccc2)c2ccccc2[C@H]2OC(c3ccc(OCCCO)cc3)=N[C@@]12CCS(=O)(=O)c1ccccc1" equal to or greater than 0.5?
Reply | n

Ask | Dear colleague, could you confirm whether "Cc1ccc(-c2cccc(=O)o2)cc1" has composite z-score at or above 0.5?
Reply | n

This collection of values is drawn from PubChem BioAssay.
